Attribution: ChEMBL document CHEMBL5291721

Recorded AC50 values (Delta-type opioid receptor (Homo sapiens, UniProt P41143)) are given below.

{"compound": "NC(=O)c1cnccn1 [PYRAZINAMIDE]", "AC50": "> 30 µM"}
{"compound": "CC[C@]1(O)C[C@@H]2CN(CCc3c([nH]c4ccccc34)[C@@](C(=O)OC)(c3cc4c(cc3OC)N(C)[C@H]3[C@@](O)(C(N)=O)[C@H](O)[C@]5(CC)C=CCN6CC[C@]43[C@@H]65)C2)C1", "AC50": "> 30 µM"}
{"compound": "Nc1nc(N)c2nc(-c3ccccc3)c(N)nc2n1", "AC50": "> 30 µM"}
{"compound": "O=C1CCC(N2C(=O)c3ccccc3C2=O)C(=O)N1 (centres undefined) [THALIDOMIDE]", "AC50": "> 30 µM"}

###

As a worked illustration, we turn to AC50 data collected for Motilin receptor (Homo sapiens, UniProt O43193).

{"compound": "CC(C(=O)O)c1ccc(C(=O)c2cccs2)cc1 (centres undefined)", "AC50": "> 10 µM"}
{"compound": "NC(N)=Nc1nc(CSCCC(N)=NS(N)(=O)=O)cs1", "AC50": "> 10 µM"}
{"compound": "CN1C(=O)CC(c2ccccc2)C1=O (centres undefined) [PHENSUXIMIDE]", "AC50": "> 10 µM"}
{"compound": "CN[C@@H](C)[C@H](O)c1ccccc1", "AC50": "> 10 µM"}
{"compound": "C#C[C@]1(O)CC[C@H]2[C@@H]3CCC4=CCCC[C@@H]4[C@H]3CC[C@@]21C", "AC50": "> 30 µM"}
{"compound": "CN(CCCN1c2ccccc2CCc2ccccc21)CC(=O)c1ccc(Cl)cc1", "AC50": "> 30 µM"}
{"compound": "CCCCCOC(=O)Nc1nc(=O)n([C@@H]2O[C@H](C)[C@@H](O)[C@H]2O)cc1F", "AC50": "> 30 µM"}
{"compound": "CCc1nn(CCCN2CCN(c3cccc(Cl)c3)CC2)c(=O)n1CCOc1ccccc1", "AC50": "> 10 µM"}
{"compound": "COc1ccc(C(=O)N2CCN(c3ccc4c(c3)CCC(=O)N4)CC2)cc1OC", "AC50": "> 30 µM"}

###

Let's go through some recorded AC50 values for UniProtKB P25929 together.
Sequence (P25929 whole entry): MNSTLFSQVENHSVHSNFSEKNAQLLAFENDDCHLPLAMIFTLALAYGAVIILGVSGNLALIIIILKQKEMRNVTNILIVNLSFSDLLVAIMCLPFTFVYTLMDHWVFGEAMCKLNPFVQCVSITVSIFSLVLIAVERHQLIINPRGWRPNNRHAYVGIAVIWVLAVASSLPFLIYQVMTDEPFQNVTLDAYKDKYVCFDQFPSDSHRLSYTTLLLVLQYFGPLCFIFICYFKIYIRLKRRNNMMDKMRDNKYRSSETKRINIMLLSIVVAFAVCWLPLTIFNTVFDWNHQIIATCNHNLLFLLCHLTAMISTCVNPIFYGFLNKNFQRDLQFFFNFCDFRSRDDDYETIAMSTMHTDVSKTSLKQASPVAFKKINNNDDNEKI
observation-type: AC50

{"molecule": "COc1ccc(C(=O)NCc2ccc(OCCN(C)C)cc2)cc1OC [ITOPRIDE]", "result": "> 30 µM"}
{"molecule": "Cc1cc2c(OCC(CNC(C)(C)C)OC(=O)c3ccccc3)cccc2[nH]1 (stereo not drawn)", "result": "> 30 µM"}
{"molecule": "COc1c(N2CCNC(C)C2)c(F)cc2c(=O)c(C(=O)O)cn(C3CC3)c12 (stereo not drawn)", "result": "> 10 µM"}
{"molecule": "CC(C(O)c1ccc(O)cc1)N1CCC(Cc2ccccc2)CC1 (stereo not drawn)", "result": "> 30 µM"}
{"molecule": "O=C(O)Cc1cn(-c2ccccc2)nc1-c1ccc(Cl)cc1", "result": "> 30 µM"}
{"molecule": "O=C1CCC(N2C(=O)c3ccccc3C2=O)C(=O)N1 (stereo not drawn) [THALIDOMIDE]", "result": "> 30 µM"}
{"molecule": "CC(C)(C(=O)c1cccnc1)c1cccnc1", "result": "> 10 µM"}
{"molecule": "CC(=O)N(CC(O)CO)c1c(I)c(C(=O)NCC(O)CO)c(I)c(C(=O)NCC(O)CO)c1I (stereo not drawn) [IOHEXOL]", "result": "> 30 µM"}
{"molecule": "C=C1CC[C@@]2(O)[C@H]3Cc4ccc(O)c5c4[C@@]2(CCN3CC2CC2)[C@H]1O5", "result": "> 30 µM"}
{"molecule": "O=C(CCCCC(=O)Nc1c(I)cc(I)c(C(=O)O)c1I)Nc1c(I)cc(I)c(C(=O)O)c1I [IODIPAMIDE]", "result": "> 10 µM"}
{"molecule": "NC(=O)c1cnccn1 [PYRAZINAMIDE]", "result": "> 30 µM"}
{"molecule": "CC(=O)O[C@]1(C(C)=O)CC[C@H]2[C@@H]3C[C@H](C)C4=CC(=O)CC[C@]4(C)[C@H]3CC[C@@]21C [MEDROXYPROGESTERONE ACETATE]", "result": "> 30 µM"}
{"molecule": "CCCCCCCCOc1ccccc1C(=O)Nc1ccc(C(=O)OCC[N+](C)(CC)CC)cc1 [OTILONIUM BROMIDE]", "result": "10 µM"}
{"molecule": "CN1C(=O)COc2c(C(=O)NC3CN4CCC3CC4)cc(Cl)cc21 (stereo not drawn)", "result": "> 30 µM"}
{"molecule": "C#CCN(C)[C@H](C)Cc1ccccc1", "result": "> 10 µM"}
{"molecule": "C#CCN[C@@H]1CCc2ccccc21", "result": "> 30 µM"}
{"molecule": "CCCCCCCCCCCC[N+](C)(C)CCOc1ccccc1", "result": "4.4 µM"}
{"molecule": "OCCN1CCN(CCCN2c3ccccc3C=Cc3ccccc32)CC1", "result": "> 30 µM"}
{"molecule": "C=C1C[C@@H]2[C@H](CC[C@]3(C)C(=O)CC[C@@H]23)[C@@]2(C)C=CC(=O)C=C12", "result": "> 30 µM"}
{"molecule": "CN1CCN(C(=O)OC2c3nccnc3C(=O)N2c2ccc(Cl)cn2)CC1 (stereo not drawn)", "result": "> 30 µM"}
{"molecule": "Cc1cccc(C)c1OCC(C)N (stereo not drawn)", "result": "> 30 µM"}
{"molecule": "CCC[C@@H]1C[C@@H](C(=O)N[C@@H]([C@H]2O[C@H](SC)[C@H](O)[C@@H](O)[C@H]2O)[C@H](C)Cl)N(C)C1", "result": "> 30 µM"}
{"molecule": "CC(C)c1c(C(=O)Nc2ccccc2)c(-c2ccccc2)c(-c2ccc(F)cc2)n1CC[C@@H](O)C[C@@H](O)CC(=O)O", "result": "> 30 µM"}

###

AC50 values for the molecules below.
target: D(3) dopamine receptor (Homo sapiens); note: assay procedure not described here
Sequence (P35462 whole entry): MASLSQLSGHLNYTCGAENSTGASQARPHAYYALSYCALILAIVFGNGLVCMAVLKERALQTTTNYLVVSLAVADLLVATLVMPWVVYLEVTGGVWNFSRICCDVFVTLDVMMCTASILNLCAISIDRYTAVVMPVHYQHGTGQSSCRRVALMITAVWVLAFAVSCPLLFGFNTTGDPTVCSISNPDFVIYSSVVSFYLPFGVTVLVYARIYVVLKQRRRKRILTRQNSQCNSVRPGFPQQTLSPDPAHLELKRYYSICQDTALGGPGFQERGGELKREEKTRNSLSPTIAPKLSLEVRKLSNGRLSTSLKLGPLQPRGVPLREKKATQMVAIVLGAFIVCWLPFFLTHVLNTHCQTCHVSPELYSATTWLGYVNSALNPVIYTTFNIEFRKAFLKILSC
observation-type: AC50

{"molecule": "NC1=NC(=O)C(c2ccccc2)O1 (stereo not given)", "result": "> 30 µM"}
{"molecule": "CC(Cc1ccccc1)NCCC(c1ccccc1)c1ccccc1 (stereo not given)", "result": "2.4 µM"}
{"molecule": "CCN(CC)CCOC(=O)c1ccc(N)cc1", "result": "> 30 µM"}
{"molecule": "CC(N)Cc1ccccc1 (stereo not given)", "result": "> 30 µM"}
{"molecule": "CN1C(=O)N(C)C2C1N(C)C(=O)N2C (stereo not given)", "result": "> 30 µM"}
{"molecule": "CN(C)CCCN1c2ccccc2Sc2ccccc21", "result": "0.075 µM"}
{"molecule": "CN1C(=O)CC(=O)N(c2ccccc2)c2cc(Cl)ccc21", "result": "> 30 µM"}
{"molecule": "Cc1ccc(C(=O)c2cc(O)c(O)c([N+](=O)[O-])c2)cc1", "result": "> 30 µM"}
{"molecule": "CO/N=C(\\C(=O)N[C@@H]1C(=O)N2C(C(=O)OCOC(=O)C(C)(C)C)=C(C)CS[C@H]12)c1csc(N)n1", "result": "> 30 µM"}
{"molecule": "O=C(C[S+]([O-])C(c1ccccc1)c1ccccc1)NO (stereo not given)", "result": "> 30 µM"}

###

Attribute: AC50
target: Voltage-dependent L-type calcium channel subunit alpha-1C (Rattus norvegicus); type: functional; note: assay procedure not described here
Sequence (P22002 whole entry): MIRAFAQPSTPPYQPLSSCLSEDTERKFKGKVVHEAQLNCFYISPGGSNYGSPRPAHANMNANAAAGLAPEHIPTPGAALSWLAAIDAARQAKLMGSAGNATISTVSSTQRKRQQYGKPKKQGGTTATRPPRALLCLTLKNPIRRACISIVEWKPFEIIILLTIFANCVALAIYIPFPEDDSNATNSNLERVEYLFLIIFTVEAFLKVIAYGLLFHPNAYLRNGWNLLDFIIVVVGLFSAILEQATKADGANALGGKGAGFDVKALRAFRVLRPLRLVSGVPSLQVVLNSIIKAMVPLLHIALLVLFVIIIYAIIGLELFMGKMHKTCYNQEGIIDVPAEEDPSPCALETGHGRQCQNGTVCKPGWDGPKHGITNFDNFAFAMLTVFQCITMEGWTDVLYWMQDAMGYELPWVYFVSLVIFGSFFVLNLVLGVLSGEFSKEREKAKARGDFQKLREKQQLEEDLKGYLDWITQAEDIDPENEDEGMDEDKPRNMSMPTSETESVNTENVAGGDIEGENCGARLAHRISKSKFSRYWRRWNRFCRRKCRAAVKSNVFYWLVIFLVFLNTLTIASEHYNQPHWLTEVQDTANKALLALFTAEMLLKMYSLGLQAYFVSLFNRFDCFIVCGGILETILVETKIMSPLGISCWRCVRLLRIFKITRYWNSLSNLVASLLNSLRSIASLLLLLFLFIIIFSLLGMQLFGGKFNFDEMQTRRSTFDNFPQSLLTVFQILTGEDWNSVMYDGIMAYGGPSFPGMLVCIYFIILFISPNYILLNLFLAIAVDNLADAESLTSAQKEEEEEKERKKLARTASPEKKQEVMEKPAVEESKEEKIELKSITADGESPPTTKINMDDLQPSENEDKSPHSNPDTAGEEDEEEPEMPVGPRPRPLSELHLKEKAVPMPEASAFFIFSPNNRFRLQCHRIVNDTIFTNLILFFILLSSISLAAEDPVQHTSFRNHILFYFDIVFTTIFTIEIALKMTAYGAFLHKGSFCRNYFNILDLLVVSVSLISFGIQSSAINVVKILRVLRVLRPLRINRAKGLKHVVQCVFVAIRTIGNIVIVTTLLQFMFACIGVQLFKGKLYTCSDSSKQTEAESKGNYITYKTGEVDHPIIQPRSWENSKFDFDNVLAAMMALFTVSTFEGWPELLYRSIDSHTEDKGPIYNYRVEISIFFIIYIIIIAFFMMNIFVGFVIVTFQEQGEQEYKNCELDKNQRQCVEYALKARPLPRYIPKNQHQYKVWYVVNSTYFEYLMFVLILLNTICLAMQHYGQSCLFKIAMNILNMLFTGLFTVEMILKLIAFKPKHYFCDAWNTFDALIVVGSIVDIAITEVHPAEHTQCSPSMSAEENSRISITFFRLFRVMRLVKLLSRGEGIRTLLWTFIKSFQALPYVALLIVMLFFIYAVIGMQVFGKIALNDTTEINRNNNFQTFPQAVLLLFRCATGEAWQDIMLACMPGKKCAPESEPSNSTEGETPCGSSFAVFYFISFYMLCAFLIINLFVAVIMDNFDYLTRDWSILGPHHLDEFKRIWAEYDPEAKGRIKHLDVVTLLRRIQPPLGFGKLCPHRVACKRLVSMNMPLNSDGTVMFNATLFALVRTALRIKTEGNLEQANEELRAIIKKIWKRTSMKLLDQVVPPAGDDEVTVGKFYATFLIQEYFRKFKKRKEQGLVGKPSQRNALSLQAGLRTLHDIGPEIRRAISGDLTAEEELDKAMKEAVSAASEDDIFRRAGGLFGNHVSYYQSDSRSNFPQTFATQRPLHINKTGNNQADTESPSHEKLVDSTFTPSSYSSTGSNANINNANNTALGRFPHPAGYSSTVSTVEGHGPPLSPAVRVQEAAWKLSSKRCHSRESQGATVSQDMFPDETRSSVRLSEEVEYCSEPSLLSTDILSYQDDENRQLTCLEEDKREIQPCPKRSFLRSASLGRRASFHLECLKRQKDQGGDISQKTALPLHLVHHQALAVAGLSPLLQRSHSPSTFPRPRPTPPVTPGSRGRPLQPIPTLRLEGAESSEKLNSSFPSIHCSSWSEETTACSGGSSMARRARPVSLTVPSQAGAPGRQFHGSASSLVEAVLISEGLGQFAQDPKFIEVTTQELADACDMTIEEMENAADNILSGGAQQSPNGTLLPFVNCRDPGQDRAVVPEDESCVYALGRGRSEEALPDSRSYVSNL

{"compound": "C[C@H]1C[C@@H]2[C@H]([C@@H](O)C[C@@]3(C)[C@H]2CC[C@]3(O)C(=O)CO)[C@@]2(C)C=CC(=O)C=C12", "assayed-system": "Voltage-dependent L-type calcium channel subunit alpha-1C (Rattus norvegicus)", "AC50": "> 10 µM"}
{"compound": "O=C(CCCCC(=O)Nc1c(I)cc(I)c(C(=O)O)c1I)Nc1c(I)cc(I)c(C(=O)O)c1I [IODIPAMIDE]", "assayed-system": "Voltage-dependent L-type calcium channel subunit alpha-1C (Rattus norvegicus)", "AC50": "> 10 µM"}
{"compound": "CCOC(=O)[C@H](CCc1ccccc1)N[C@@H](C)C(=O)N1CCC[C@H]1C(=O)O", "assayed-system": "Voltage-dependent L-type calcium channel subunit alpha-1C (Rattus norvegicus)", "AC50": "> 10 µM"}
{"compound": "CCOc1cc(N)c([N+](=O)[O-])cc1C(=O)NC1CCN(CC2CC=CCC2)CC1 (centres undefined) [CINITAPRIDE]", "assayed-system": "Voltage-dependent L-type calcium channel subunit alpha-1C (Rattus norvegicus)", "AC50": "> 30 µM"}
{"compound": "O=C(C[S+]([O-])C(c1ccccc1)c1ccccc1)NO (centres undefined)", "assayed-system": "Voltage-dependent L-type calcium channel subunit alpha-1C (Rattus norvegicus)", "AC50": "> 30 µM"}
{"compound": "C1=Cc2cccc(OCC3CNCCO3)c2C1 (centres undefined)", "assayed-system": "Voltage-dependent L-type calcium channel subunit alpha-1C (Rattus norvegicus)", "AC50": "> 30 µM"}
{"compound": "NS(=O)(=O)c1cc2c(cc1Cl)NCNS2(=O)=O [HYDROCHLOROTHIAZIDE]", "assayed-system": "Voltage-dependent L-type calcium channel subunit alpha-1C (Rattus norvegicus)", "AC50": "> 10 µM"}
{"compound": "COc1ccc(C(=O)NCc2ccc(OCCN(C)C)cc2)cc1OC [ITOPRIDE]", "assayed-system": "Voltage-dependent L-type calcium channel subunit alpha-1C (Rattus norvegicus)", "AC50": "> 30 µM"}
{"compound": "NC(CO)C(=O)NNCc1ccc(O)c(O)c1O (centres undefined) [BENSERAZIDE]", "assayed-system": "Voltage-dependent L-type calcium channel subunit alpha-1C (Rattus norvegicus)", "AC50": "> 10 µM"}
{"compound": "COc1cc(Nc2c(C#N)cnc3cc(OCCCN4CCN(C)CC4)c(OC)cc23)c(Cl)cc1Cl", "assayed-system": "Voltage-dependent L-type calcium channel subunit alpha-1C (Rattus norvegicus)", "AC50": "> 10 µM"}
{"compound": "NS(=O)(=O)c1cc(Cl)c(Cl)c(S(N)(=O)=O)c1 [DICHLORPHENAMIDE]", "assayed-system": "Voltage-dependent L-type calcium channel subunit alpha-1C (Rattus norvegicus)", "AC50": "> 10 µM"}
{"compound": "C[N+](C)(C)CCOC(N)=O", "assayed-system": "Voltage-dependent L-type calcium channel subunit alpha-1C (Rattus norvegicus)", "AC50": "> 10 µM"}
{"compound": "O=C1CCC(N2C(=O)c3ccccc3C2=O)C(=O)N1 (centres undefined) [THALIDOMIDE]", "assayed-system": "Voltage-dependent L-type calcium channel subunit alpha-1C (Rattus norvegicus)", "AC50": "> 10 µM"}
{"compound": "CC(C)NCC1CCc2cc(CO)c([N+](=O)[O-])cc2N1 (centres undefined)", "assayed-system": "Voltage-dependent L-type calcium channel subunit alpha-1C (Rattus norvegicus)", "AC50": "> 10 µM"}
{"compound": "Cc1c(Cl)cccc1Nc1ccccc1C(=O)O", "assayed-system": "Voltage-dependent L-type calcium channel subunit alpha-1C (Rattus norvegicus)", "AC50": "> 30 µM"}
{"compound": "Oc1ncnc2[nH]ncc12", "assayed-system": "Voltage-dependent L-type calcium channel subunit alpha-1C (Rattus norvegicus)", "AC50": "> 10 µM"}
{"compound": "CS(=O)(=O)c1ccc([C@@H](O)[C@@H](CO)NC(=O)C(Cl)Cl)cc1", "assayed-system": "Voltage-dependent L-type calcium channel subunit alpha-1C (Rattus norvegicus)", "AC50": "> 30 µM"}
{"compound": "CCNC(C)Cc1cccc(C(F)(F)F)c1 (centres undefined)", "assayed-system": "Voltage-dependent L-type calcium channel subunit alpha-1C (Rattus norvegicus)", "AC50": "> 10 µM"}
{"compound": "CN1C(=O)COc2c(C(=O)NC3CN4CCC3CC4)cc(Cl)cc21 (centres undefined)", "assayed-system": "Voltage-dependent L-type calcium channel subunit alpha-1C (Rattus norvegicus)", "AC50": "> 30 µM"}
